system: NCI-H23; assay: relative viability (nuclei count vs DMSO), 5 days (fraction); higher = more cells survive; conditions: first compound 6.325 µM
observed_property: relative viability
Numbers only.

The following compounds have reported results that may help.
[in] Under NCI-H23: relative viability value of Cc1csc(=NC2CCCCC2)n1/N=C/c1ccc(O)c(O)c1O [MIM1] + CS(=O)(=O)CCNCc1ccc(-c2ccc3ncnc(Nc4ccc(OCc5cccc(F)c5)c(Cl)c4)c3c2)o1 [Lapatinib] (partner 2 µM) ?
[out] 0.88

[in] Under NCI-H23: relative viability value of Cc1csc(=NC2CCCCC2)n1/N=C/c1ccc(O)c(O)c1O [MIM1] + CCNC(=O)c1noc(-c2cc(C(C)C)c(O)cc2O)c1-c1ccc(CN2CCOCC2)cc1 [Luminespib] (partner 0.01 µM) ?
[out] 0.198

[in] Under NCI-H23: relative viability value of Cc1csc(=NC2CCCCC2)n1/N=C/c1ccc(O)c(O)c1O [MIM1] + CS(=O)(=O)N1CCN(Cc2cc3nc(-c4cccc5[nH]ncc45)nc(N4CCOCC4)c3s2)CC1 [Pictilisib] (partner 1 µM) ?
[out] 0.467

Switching to the query record.
[in] Under NCI-H23: relative viability value of Cc1csc(=NC2CCCCC2)n1/N=C/c1ccc(O)c(O)c1O [MIM1] + N=C(N)NC(=N)NCCc1ccccc1 [Phenformin] (partner 250 µM) ?
[out] 0.598
